test parameters: in isopropanol, 313.15 K
property: solubility (mole fraction)
Number only, please.

query: For the molecule C[C@@H](O)[C@H]1C(=O)N2C(C(=O)[O-])=C(SC3Cn4cnc[n+]4C3)[C@H](C)[C@H]12 (stereo partly specified) , report solubility (mole fraction).
result: 2e-05

====

test parameters: in acetonitrile, 293.15 K
property: solubility (mole fraction)
Number only, please.

query: For the compound C[C@@H](O)[C@H]1C(=O)N2C(C(=O)[O-])=C(SC3Cn4cnc[n+]4C3)[C@H](C)[C@H]12 (stereo partly specified) , report solubility (mole fraction).
result: 4.61e-05

====

test parameters: in methanol, 313.15 K
property: solubility (mole fraction)
Number only, please.

query: For the compound C[C@@H](O)[C@H]1C(=O)N2C(C(=O)[O-])=C(SC3Cn4cnc[n+]4C3)[C@H](C)[C@H]12 (stereo partly specified) , report solubility (mole fraction).
result: 4.9e-05
